# TEST_DESCRIPTION: RP HPLC on octadecyl (C-18/RP-18) column, buffer-MeOH pH 7.4, log kw by extrapolation
# Type: physicochemical
# CONDITION_CONTEXT: C18 stationary phase, MeOH-buffer pH 7.4, extrapolated intercept
ENDPOINT_LABEL: log kw C-18
When you answer, write just the number.

In the examples that follow, each entry is paired with its recorded log kw C-18.
MOLECULE | log kw C-18
c1ccc2ccccc2c1 [naphthalene, reference compound] | 2.615
O=[N+]([O-])c1cccc(-c2nnc(-c3ccc(O)cc3O)s2)c1 [Compound 9] | 2.512

Give me measured log kw C-18, please, for this molecule: CCN(CC)CC(=O)Nc1c(C)cccc1C [lidocaine, reference compound] 2.079

Provide measured log kw C-18 value, entry: Cc1ccc(Nc2nnc(-c3ccc(O)cc3O)s2)cc1 [Compound 12] 2.986

Supply recorded log kw C-18 for Oc1ccc(-c2nnc(COc3ccc(OC(F)(F)F)cc3)s2)c(O)c1 [Compound 18] here. 2.879

Identify log kw C-18 associated with the molecule Oc1ccc(-c2nnc(-c3ccc(Cl)cc3Cl)s2)c(O)c1 [Compound 5] 3.678

Please report the measured log kw C-18 for CCc1cc(-c2nnc(Nc3ccc(Cl)cc3)s2)c(O)cc1O [Compound 14] 4.296

----------
# TEST_DESCRIPTION: Log D(7.4) determination from RP-18 measurements using a standard curve
# Type: physicochemical
# CONDITION_CONTEXT: C18 (RP-18) HPLC column with MeOH-water mobile phase; calculated from standard curve (Equation 3) and log kw C18, pH 7.4
# From the text: C-18 chromatography was used to determine the distribution coefficient log D(7.4) of the tested compounds using a standard curve. It was constructed for the reference compounds with known experimental log D(7.4) values and studied chromatographically under the same conditions as the analyzed compounds [44] (Table 4). The obtained log kw values were plotted against the log D(7.4) based on BioLoom Database values taken from Andres et al. (Table S6 in the Supplementary Materials). […]
ENDPOINT_LABEL: chromatographic logD
Just the number, please, no unit after it.

Some entries whose results are on file:
COMPOUND | ENDPOINT_LABEL | OBS_VALUE
Oc1ccc(-c2nnc(Nc3ccccc3)s2)c(O)c1 [Compound 11] | chromatographic logD | 2.42
CCCCNc1nnc(-c2cc(Cl)c(O)cc2O)s1 [Compound 17] | chromatographic logD | 2.83
CCOC(=O)c1ccc(Nc2nnc(-c3ccc(O)cc3O)s2)cc1 [Compound 15] | chromatographic logD | 3.45
Cc1cccc(-c2nnc(-c3ccc(O)cc3O)s2)c1 [Compound 2] | chromatographic logD | 3.13
Cc1ccc(Nc2nnc(-c3ccc(O)cc3O)s2)cc1 [Compound 12] | chromatographic logD | 3.11

Give the reported value of chromatographic logD for this record: Oc1ccc(-c2nnc(COc3ccc(OC(F)(F)F)cc3)s2)c(O)c1 [Compound 18] 2.97

Report chromatographic logD for Oc1ccc(-c2nnc(-c3ccccc3)s2)c(O)c1 [Compound 1] 2.51

----------
# TEST_DESCRIPTION: RP HPLC on octadecyl (C-18/RP-18) column, buffer-MeOH pH 7.4, log kw by extrapolation
# Assay type: physicochemical
# CONDITION_CONTEXT: slope of log k vs MeOH content, C18 stationary phase, pH 7.4
Threshold-based label: S under -4 gives YES, S not under -4 gives NO.

Reference set, count: 4
SMILES_RECORD | CLASSIFICATION
Oc1cc(O)c(-c2nnc(-c3ccc(OC(F)(F)F)cc3)s2)cc1Cl | YES
Oc1ccc(-c2nnc(-c3ccc(C(F)(F)F)cc3)s2)c(O)c1 | YES
Oc1ccc(-c2nnc(-c3ccc(Cl)cc3Cl)s2)c(O)c1 | YES
Oc1ccc(-c2nnc(Nc3ccccc3)s2)c(O)c1 | NO

In the record for CCOC(=O)c1ccc(Nc2nnc(-c3ccc(O)cc3O)s2)cc1 , is S less than -4? YES

----------
Listed here: items and their measured log kw C-18.
# TEST_DESCRIPTION: RP HPLC on octadecyl (C-18/RP-18) column, buffer-MeOH pH 7.4, log kw by extrapolation
# Type: physicochemical
# CONDITION_CONTEXT: C18 stationary phase, MeOH-buffer pH 7.4, extrapolated intercept
Enter the number alone.

Below, each entry is followed by its recorded log kw C-18 result.
COMPOUND | OBS_VALUE
CC(=O)N1CCN(c2ccc(OCC3COC(Cn4ccnc4)(c4ccc(Cl)cc4Cl)O3)cc2)CC1 (stereo not drawn) [ketoconazole, reference compound] | 3.370
Cc1cccc(-c2nnc(-c3ccc(O)cc3O)s2)c1 | 3

Return the recorded log kw C-18 value; entry: COc1cc(-c2nnc(-c3ccc(O)cc3O)s2)ccc1O 2.545

Quick one: give measured log kw C-18 for Oc1ccc(-c2nnc(-c3ccc(O)c(O)c3)s2)c(O)c1 1.907

Give recorded log kw C-18. Oc1ccc(-c2nnc(-c3ccccc3F)s2)c(O)c1 3.002

Note down log kw C-18 recorded for Oc1cc(O)c(-c2nnc(-c3ccc(OC(F)(F)F)cc3)s2)cc1Cl 3.734

Provide measured log kw C-18 value, entry: Oc1ccc(-c2nnc(-c3ccccc3Cl)s2)c(O)c1 2.67

Provide only the value of recorded log kw C-18 for Oc1ccc(-c2nnc(-c3ccccc3)s2)c(O)c1 2.537

Identify measured log kw C-18 corresponding to Oc1ccc(-c2nnc(Nc3ccccc3)s2)c(O)c1 2.477

----------
# TEST_DESCRIPTION: RP HPLC on octadecyl (C-18/RP-18) column, buffer-MeOH pH 7.4, log kw by extrapolation
# Type: physicochemical
# CONDITION_CONTEXT: slope of log k vs MeOH content, C18 stationary phase, pH 7.4
ENDPOINT_LABEL: S

Solved cases below.
SMILES_RECORD | OBS_VALUE
O=[N+]([O-])c1cccc(-c2nnc(-c3ccc(O)cc3O)s2)c1 | −3.432
Oc1ccc(-c2nnc(-c3ccc(O)c(O)c3)s2)c(O)c1 | −3.171
COc1cc(-c2nnc(-c3ccc(O)cc3O)s2)ccc1O | −3.785

Given the compound Oc1ccc(-c2nnc(-c3ccccc3)s2)c(O)c1 , write its reported S. −3.494

Specify S for Oc1ccc(-c2nnc(-c3ccccc3Cl)s2)c(O)c1 and stop. −3.651

State, in one line, measured S of Cc1cccc(-c2nnc(-c3ccc(O)cc3O)s2)c1 −3.87

Return the recorded S value; entry: CCc1cc(-c2nnc(Nc3ccc(Cl)cc3)s2)c(O)cc1O −5.335

----------
# TEST_DESCRIPTION: RP HPLC on octadecyl (C-18/RP-18) column, buffer-MeOH pH 7.4, log kw by extrapolation
# Assay type: physicochemical
# CONDITION_CONTEXT: C18 stationary phase, MeOH-buffer pH 7.4, extrapolated intercept
// reported log kw C-18 per item
Reply with the value as a number alone.

Examples with answers:
COMPOUND | OBS_VALUE
Oc1cc(O)c(-c2nnc(Nc3ccc(F)cc3)s2)cc1Cl [Compound 13] | 3.005
Oc1ccc(-c2nnc(-c3ccc(C(F)(F)F)cc3)s2)c(O)c1 [Compound 6] | 3.69
Cn1c(=O)c2c(ncn2C)n(C)c1=O [caffeine, reference compound] | 0.802
Oc1ccc(-c2nnc(Nc3cccc4ccccc34)s2)c(O)c1 [Compound 16] | 3.059

Please look at the following compound next.
Output log kw C-18 of CCCCNc1nnc(-c2cc(Cl)c(O)cc2O)s1 [Compound 17] 2.78

----------
# TEST_DESCRIPTION: RP HPLC on octadecyl (C-18/RP-18) column, buffer-MeOH pH 7.4, log kw by extrapolation
# Format: physicochemical
# CONDITION_CONTEXT: C18 stationary phase, MeOH-buffer pH 7.4, extrapolated intercept
ENDPOINT_LABEL: log kw C-18
No unit in the answer, please; the number alone is enough.

Observe how each entry below is paired with its result.
COMPOUND | log kw C-18
CCOC(=O)c1ccc(Nc2nnc(-c3ccc(O)cc3O)s2)cc1 [Compound 15] | 3.238
C[C@]12CCC(=O)C=C1CC[C@@H]1[C@@H]2[C@@H](O)C[C@@]2(C)[C@H]1CC[C@]2(O)C(=O)CO [hydrocortisone, reference compound] | 2.210
Cn1c(=O)c2[nH]cnc2n(C)c1=O [theophylline, reference compound] | 0.380

Shift focus to the following entry.
Find the measured log kw C-18 of O=C(CCCN1CCC(O)(c2ccc(Cl)cc2)CC1)c1ccc(F)cc1 [haloperidol, reference compound] and report it. 3.012

----------
Below, each entry is listed alongside its reported chromatographic logD.
# TEST_DESCRIPTION: Log D(7.4) determination from RP-18 measurements using a standard curve
# Format: physicochemical
# CONDITION_CONTEXT: C18 (RP-18) HPLC column with MeOH-water mobile phase; calculated from standard curve (Equation 3) and log kw C18, pH 7.4
A bare number is all that is needed in reply.

SMILES_RECORD | chromatographic logD
Oc1ccc(-c2nnc(-c3ccccc3F)s2)c(O)c1 | 3.13

Given O=[N+]([O-])c1cccc(-c2nnc(-c3ccc(O)cc3O)s2)c1 , respond with its chromatographic logD. 2.47

Name the recorded chromatographic logD of the item Oc1ccc(-c2nnc(-c3ccc(Cl)cc3Cl)s2)c(O)c1 in your answer. 4.05
